Biological target: T1, human TL1A extracellular domain with N-terminal HIS and FLAG tag (human) (UniProt O95150)
T1 sequence: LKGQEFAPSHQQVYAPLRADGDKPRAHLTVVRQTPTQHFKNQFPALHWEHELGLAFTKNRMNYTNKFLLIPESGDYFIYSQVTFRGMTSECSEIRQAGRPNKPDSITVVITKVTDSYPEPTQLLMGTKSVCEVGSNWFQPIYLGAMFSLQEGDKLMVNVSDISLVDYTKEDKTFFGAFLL
Experiment: cell-based or functional assay
MEASURED_PROPERTY: Antibody IC50, TL1A induced caspase potency assay in TF-1 cells (µg/mL)
Write the answer as a number in µg/mL, unit excluded.

Examples with answers:
[
  {
    "BINDER": "320-188 (antibody, human IgG1, name in Kabat numbering, V domains shown, human IgG1, lambda) VH: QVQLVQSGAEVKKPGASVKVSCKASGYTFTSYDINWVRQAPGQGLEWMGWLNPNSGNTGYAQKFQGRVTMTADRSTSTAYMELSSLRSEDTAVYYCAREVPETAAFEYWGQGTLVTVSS VL: QSVLTQPPSVSGAPGQRVTISCTSSSSDIGAGLGVHWYQQLPGTAPKLLIEGYYNRPSGVPDRFSGSKSGTSASLTITGLHPEDEGDYYCQSYDGTLSALFGGGTKLTVLG",
    "NUMBER": 0.01
  },
  {
    "BINDER": "320-209 (antibody, human IgG1, name in Kabat numbering, V domains shown, human IgG1, lambda) VH: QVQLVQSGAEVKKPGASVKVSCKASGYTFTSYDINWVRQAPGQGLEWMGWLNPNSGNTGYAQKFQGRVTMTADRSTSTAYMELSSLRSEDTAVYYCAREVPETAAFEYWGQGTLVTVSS VL: QSVLTQPPSVSGAPGQRVTISCTSASSDIGAGLGVHWYQQLPGTAPKLLIEGYYNRPSGVPDRFSGSKSGTSASLTITGLLPEDEGDYYCQSYDGTLSALFGGGTKLTVLG",
    "NUMBER": 0.04
  }
]

In the following, a different binder is considered.
Ask | Determine its reported Antibody IC50, TL1A induced caspase potency assay in TF-1 cells: 320-314 (antibody, human IgG1, name in Kabat numbering, V domains shown, human IgG1, lambda) VH: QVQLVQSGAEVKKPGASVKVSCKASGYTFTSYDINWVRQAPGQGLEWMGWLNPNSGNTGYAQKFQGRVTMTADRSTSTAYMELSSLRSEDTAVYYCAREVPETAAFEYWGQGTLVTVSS VL: QSVLTQPPSVSGAPGQRVTISCTSSSSDIGAGLGVHWYQQLPGTAPKLLIEGYYNRPSGVPDRFSGSKSGTSASLTITGLLPEDEGDYYCKSYDGTLSALFGGGTKLTVLG
Reply | 0.02
